# assay_explanation: Chronic DIO Mouse, second study: plasma and brain concentrations
# Type: in vivo
# measurement_conditions: male, mouse, plasma, oral, 10 mg/kg, DIO mice, 10 mg/kg, Day 23, 2 hours post dose; read-out: Plasma concentration (Std Dev)
measure: concentration at 2 h (ng/mL)
All answers are understood in ng/mL, so give the number only.

Recorded concentration at 2 h for O=c1cc(NC2CCN(S(=O)(=O)C(F)(F)F)CC2)c2cc(C(c3ccc(Cl)cc3)c3ccc(Cl)cc3)ccc2[nH]1 [Compound #44] , please?
5280

----------
# measured_on: Human CB1R (Cannabinoid receptor 1) (Homo sapiens (Human), UniProt P21554)
# Sequence (P21554 whole entry): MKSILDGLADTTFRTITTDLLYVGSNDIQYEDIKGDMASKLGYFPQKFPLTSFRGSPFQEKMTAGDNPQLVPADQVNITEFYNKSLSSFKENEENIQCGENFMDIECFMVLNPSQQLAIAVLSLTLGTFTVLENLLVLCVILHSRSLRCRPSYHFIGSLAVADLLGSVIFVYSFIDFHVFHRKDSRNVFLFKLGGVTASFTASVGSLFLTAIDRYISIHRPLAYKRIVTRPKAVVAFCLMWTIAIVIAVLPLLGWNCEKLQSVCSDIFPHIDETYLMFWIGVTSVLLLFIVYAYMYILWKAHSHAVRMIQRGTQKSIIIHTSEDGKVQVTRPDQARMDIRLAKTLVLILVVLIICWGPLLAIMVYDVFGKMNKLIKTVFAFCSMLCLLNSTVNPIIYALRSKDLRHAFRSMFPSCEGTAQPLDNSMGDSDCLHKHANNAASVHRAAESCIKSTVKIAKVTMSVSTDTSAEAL
# assay_explanation: CB-1 in vitro cAMP assay (HTRF), inverse agonism
# measurement_conditions: mean where tested more than once
measure: pEC50
Just so you know, pEC50 here is -log10 of the concentration in molar units; reply with that number alone.

Recorded pEC50 for O=c1cc(Nc2cccc(C(F)(F)F)c2)c2cc(C(c3ccc(Cl)cc3)c3ccc(Cl)cc3)ccc2[nH]1 , please?
7.60

Recorded pEC50 for NC(=O)CCCCOc1cc(C(c2ccc(Cl)cc2)c2ccc(Cl)cc2)cc2c(NC3CCN(S(=O)(=O)C(F)(F)F)CC3)ccnc12 , please?
7.29

Recorded pEC50 for O=S(=O)(N1CCC(Nc2ccnc3c(O)cc(C(c4ccc(Cl)cc4)c4ccc(Cl)cc4)cc23)CC1)C(F)(F)F , please?
6.47

Recorded pEC50 for O=c1cc(NC2CCN(S(=O)(=O)C(F)(F)F)CC2)c2cc(C(c3ccc(Cl)cc3)c3ccc(Cl)c(Cl)c3)ccc2[nH]1 (stereo not drawn) , please?
7.70

Recorded pEC50 for O=c1cc(NC2CCN(S(=O)(=O)C(F)(F)F)CC2)c2cc(C(O)(c3ccc(Cl)cc3)c3ccc(Cl)cc3)ccc2[nH]1 , please?
7.28

Recorded pEC50 for O=c1cc(NC2CCN(S(=O)(=O)N3CCCC3)CC2)c2cc(C(c3ccc(Cl)cc3)c3ccc(Cl)cc3)ccc2[nH]1 , please?
7.82

Recorded pEC50 for O=c1cc(N[C@@H]2CCN(S(=O)(=O)C(F)(F)F)C2)c2cc(C(c3ccc(Cl)cc3)c3nccs3)ccc2[nH]1 (stereo partly drawn) , please?
7.12

Recorded pEC50 for O=C(O)CN1CCC(Nc2cc(=O)[nH]c3ccc(C(c4ccc(Cl)cc4)c4ccc(Cl)cc4)cc23)CC1 , please?
5.01

Recorded pEC50 for O=c1cc(NC2CCN(S(=O)(=O)C(F)(F)F)CC2)c2cc(C(c3ccc(Cl)cc3)c3ccc4c(c3)OCO4)ccc2[nH]1 (stereo not drawn) , please?
8.00

Recorded pEC50 for Clc1ccc(C(c2ccc(Cl)cc2)c2ccc3nccc(/C=C/c4ccccc4)c3c2)cc1 , please?
6.72

Recorded pEC50 for O=c1cc(NC2CCN(S(=O)(=O)C(F)(F)F)CC2)c2cc(C(Oc3ccc(Cl)cc3)c3ccc(Cl)cc3)ccc2[nH]1 (stereo not drawn) , please?
6.91

Recorded pEC50 for O=C(O)CCCCCOc1cc(NC2CCN(S(=O)(=O)C(F)(F)F)CC2)c2cc(C(c3ccc(Cl)cc3)c3ccc(Cl)cc3)ccc2n1 , please?
7.04

Recorded pEC50 for CC(C)(C)OC(=O)N1CC=C(c2cc(=O)[nH]c3ccc(C(c4ccc(Cl)cc4)c4ccc(Cl)cc4)cc23)CC1 , please?
6.39

Recorded pEC50 for CS(=O)(=O)N1CCC(Nc2cc(=O)[nH]c3ccc(C(c4ccc(Cl)cc4)c4ccc(Cl)cc4)cc23)CC1 , please?
7.03

Recorded pEC50 for CC(C)(C)OC(=O)N1CC[C@@H](Nc2cc(=O)[nH]c3ccc(C(c4ccc(Cl)cc4)c4nccs4)cc23)C1 (stereo partly drawn) , please?
6.18

Recorded pEC50 for O=c1cc(NC2CCCCC2)c2cc(C(c3ccc(Cl)cc3)c3ccc(Cl)cc3)ccc2[nH]1 , please?
8.15

Recorded pEC50 for NC(=O)Cc1ccc(Nc2cc(=O)[nH]c3ccc(C(c4ccc(Cl)cc4)c4ccc(Cl)cc4)cc23)cc1 , please?
7.10

Recorded pEC50 for O=C(N1CC=C(c2cc(=O)[nH]c3ccc(C(c4ccc(Cl)cc4)c4ccc(Cl)cc4)cc23)CC1)C(F)(F)F , please?
6.60

Recorded pEC50 for NC(=O)c1ccc(Nc2cc(=O)[nH]c3ccc(C(c4ccc(Cl)cc4)c4ccc(Cl)cc4)cc23)cc1 , please?
5.50

Recorded pEC50 for CC(C)(C)OC(=O)N1CC[C@H](Nc2cc(=O)[nH]c3ccc(C(c4ccc(Cl)cc4)c4nccs4)cc23)C1 (stereo partly drawn) , please?
5.93

Recorded pEC50 for COC(=O)c1ccc(Nc2cc(=O)[nH]c3ccc(C(c4ccc(Cl)cc4)c4ccc(Cl)cc4)cc23)cc1 , please?
7.15

Recorded pEC50 for O=C(O)c1cccc(S(=O)(=O)N2CCC(Nc3cc(=O)[nH]c4ccc(C(c5ccc(Cl)cc5)c5ccc(Cl)cc5)cc34)CC2)c1 , please?
6.57

Recorded pEC50 for O=c1cc(NC2CCN(S(=O)(=O)c3cccc(F)c3)CC2)c2cc(C(c3ccc(Cl)cc3)c3ccc(Cl)cc3)ccc2[nH]1 , please?
7.20

Recorded pEC50 for O=c1cc(Nc2ccc(-c3ccccc3)cc2)c2cc(C(c3ccc(Cl)cc3)c3ccc(Cl)cc3)ccc2[nH]1 , please?
7.14

----------
I'd appreciate it if you could supply pEC50 values for the items below.
# measured_on: Human CB2R (Cannabinoid receptor 2) (Homo sapiens (Human))
# Sequence (P34972 whole entry): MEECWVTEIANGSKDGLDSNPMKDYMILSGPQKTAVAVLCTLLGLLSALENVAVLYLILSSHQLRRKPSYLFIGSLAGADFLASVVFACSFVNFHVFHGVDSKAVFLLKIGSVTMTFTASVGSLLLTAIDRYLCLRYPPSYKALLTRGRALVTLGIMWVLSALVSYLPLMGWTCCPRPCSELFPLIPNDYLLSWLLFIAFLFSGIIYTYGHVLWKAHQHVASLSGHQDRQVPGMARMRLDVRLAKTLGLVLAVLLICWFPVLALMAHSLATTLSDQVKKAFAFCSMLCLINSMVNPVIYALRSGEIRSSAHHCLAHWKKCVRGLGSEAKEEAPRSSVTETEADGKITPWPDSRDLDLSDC
# assay_explanation: CB-2 in vitro cAMP assay (HTRF), inverse agonism
# measurement_conditions: mean where tested more than once
pEC50: −log10 of the molar value.

Recorded pEC50 for COC(=O)CCCCCOc1cc(NC2CCN(S(=O)(=O)C(F)(F)F)CC2)c2cc(C(c3ccc(Cl)cc3)c3ccc(Cl)cc3)ccc2n1 , please?
< 5.00

Recorded pEC50 for O=c1cc(/C=C\c2ccc(C(F)(F)F)cc2)c2cc(C(c3ccc(Cl)cc3)c3cccs3)ccc2[nH]1 (stereo not shown) , please?
< 5.00

Recorded pEC50 for O=c1cc(NC2CCN(S(=O)(=O)C(F)(F)F)CC2)c2cc(C(c3ccc(Cl)cc3)c3ccc(Cl)cc3)cc(NC3CCN(S(=O)(=O)C(F)(F)F)CC3)c2[nH]1 , please?
< 5.00

Recorded pEC50 for COCCn1c(=O)cc(NC2CCN(S(=O)(=O)C(F)(F)F)CC2)c2cc(C(c3ccc(Cl)cc3)c3ccc(Cl)cc3)ccc21 , please?
< 5.00

Recorded pEC50 for CCOC(=O)COc1cc(C(c2ccc(Cl)cc2)c2ccc(Cl)cc2)cc2c(NC3CCN(S(=O)(=O)C(F)(F)F)CC3)cc(=O)[nH]c12 , please?
5.47

Recorded pEC50 for O=C(O)CCCOc1ccc(Nc2cc(=O)[nH]c3ccc(C(c4ccc(Cl)cc4)c4ccc(Cl)cc4)cc23)cc1 , please?
< 5.00

Recorded pEC50 for O=c1cc(Cc2ccc(OC(F)(F)F)cc2)c2cc(C(c3ccc(Cl)cc3)c3nccs3)ccc2[nH]1 (stereo not shown) , please?
< 5.00

Recorded pEC50 for O=C(O)c1ccc(Nc2cc(=O)[nH]c3ccc(C(c4ccc(Cl)cc4)c4ccc(Cl)cc4)cc23)cc1 , please?
< 5.00

Recorded pEC50 for O=c1cc(Nc2cccc(C(F)(F)F)c2)c2cc(C(c3ccc(Cl)cc3)c3ccc(Cl)cc3)ccc2[nH]1 , please?
< 5.00

Recorded pEC50 for O=C(O)CN1CCC(Nc2cc(=O)[nH]c3ccc(C(c4ccc(Cl)cc4)c4ccc(Cl)cc4)cc23)CC1 , please?
< 5.00

Recorded pEC50 for NC(=O)COc1ccc(Nc2cc(=O)[nH]c3ccc(C(c4ccc(Cl)cc4)c4ccc(Cl)cc4)cc23)cc1 , please?
< 5.00

Recorded pEC50 for NC(=O)CCCOc1ccc(Nc2cc(=O)[nH]c3ccc(C(c4ccc(Cl)cc4)c4ccc(Cl)cc4)cc23)cc1 , please?
< 5.00

Recorded pEC50 for COCCNc1cc(C(c2ccc(Cl)cc2)c2ccc(Cl)cc2)cc2c(NC3CCN(S(=O)(=O)C(F)(F)F)CC3)cc(=O)[nH]c12 , please?
6.70

----------
# assay_explanation: Chronic DIO Mouse, first study: plasma and brain concentrations
# Type: in vivo
# measurement_conditions: male, plasma, DIO mice, 3 mg/kg daily oral, 2 Hours Post Dose, Day 16, (Std Dev), read-out: Plasma concentration
measure: concentration at 2 h (ng/mL)
All answers are understood in ng/mL, so give the number only.

Recorded concentration at 2 h for O=c1cc(NC2CCN(S(=O)(=O)C(F)(F)F)CC2)c2cc(C(c3ccc(Cl)cc3)c3ccc(Cl)cc3)ccc2[nH]1 , please?
1510

----------
# assay_explanation: Open field locomotor study in rats: plasma and brain concentrations 4 hrs post dosing
# Type: in vivo
# measurement_conditions: male, Sprague Dawley, rat, brain, oral, 3 mg/kg, read-out: Brain Mean ± Std Dev
measure: concentration at 4 h (ng/g)
All answers are understood in ng/g, so give the number only.

Recorded concentration at 4 h for O=c1cc(NC2CCN(S(=O)(=O)C(F)(F)F)CC2)c2cc(C(c3ccc(Cl)cc3)c3ccc(Cl)cc3)ccc2[nH]1 [Compound #44] , please?
9.85

Hello, the source for this data is patent US9266835B2, in case you need it.
